The reported measurements were obtained from patent US20190119282A1.

Target: PAR2 (HT-29 cells, trypsin activation) (Homo sapiens)
Construct: host or cells: HT-29 cells
Sequence (P55085 26-397): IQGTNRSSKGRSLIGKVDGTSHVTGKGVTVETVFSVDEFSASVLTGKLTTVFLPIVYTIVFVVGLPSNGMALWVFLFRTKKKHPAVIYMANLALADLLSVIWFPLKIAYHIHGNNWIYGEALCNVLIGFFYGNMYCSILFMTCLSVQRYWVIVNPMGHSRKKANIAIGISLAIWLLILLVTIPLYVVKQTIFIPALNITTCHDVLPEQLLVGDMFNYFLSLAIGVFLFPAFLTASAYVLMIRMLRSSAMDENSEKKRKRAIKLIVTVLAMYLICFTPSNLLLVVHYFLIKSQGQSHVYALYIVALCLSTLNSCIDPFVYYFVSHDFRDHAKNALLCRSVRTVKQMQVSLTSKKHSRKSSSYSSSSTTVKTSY
Assay: Ca FLIPR TETRA assay, ANTAGONIST mode, stimulation with 3.1 U/mL trypsin
Format: cell-based
Details: Table 8; reported compounds of WO2005/030773, JP2003286171, JP2004170323; HT-29 cells
recorded-endpoint: pIC50
pIC50 is a log-scale quantity: -log10 of the concentration expressed in molar.

Below, each entry is followed by its recorded pIC50 result.
| compound | pIC50 |
| --- | --- |
| CCOC(=O)C1CCCCN1C(=O)c1cc2nc(-c3ccc(Cl)cc3)cc(C(F)(F)F)n2n1 (stereo not drawn) [Compound P-592, reference compound] | 6.89 |
| O=C(c1nn2c(C(F)(F)F)cc(-c3ccccc3)nc2c1Br)N1CCC(c2ccc(F)cc2)C1 (stereo not drawn) [Compound P-608, reference compound] | 4.48 |

Exercise: Consider the compound shown here: CCOC(=O)C1CCCCN1C(=O)c1cc2nc(-c3ccccc3)cc(C(F)(F)F)n2n1 (stereo not drawn) [Compound P-604, reference compound] What is its recorded pIC50?
Key: 5.41

Exercise: Quick one: pIC50 of CCOC(=O)C1CCN(C(=O)c2cc3nc(-c4ccccc4)cc(C(F)(F)F)n3n2)CC1 [Compound P-603, reference compound] ?
Key: 4.77

Exercise: Returns the measured pIC50 for the input compound. Input: O=C(c1cc2nc(-c3ccccc3)cc(C(F)(F)F)n2n1)N1CCCCCC1 [Compound P-601, reference compound]
Key: 6.06

Exercise: For the compound shown here, O=C(c1cc2nc(-c3ccccc3)cc(C(F)(F)F)n2n1)N1CCC(O)CC1 [Compound P-609, reference compound] , give the reported pIC50.
Key: 4.85

Exercise: Need pIC50, item CN(CCO)C(=O)c1cc2nc(-c3ccc(Cl)cc3)cc(C(F)(F)F)n2n1 [Compound P-597, reference compound]
Key: 4.57

====

Target: PAR2 (HT-29 cells, SLIGKV activation) (Homo sapiens)
Construct: host or cells: HT-29 cells
Sequence (P55085 26-397): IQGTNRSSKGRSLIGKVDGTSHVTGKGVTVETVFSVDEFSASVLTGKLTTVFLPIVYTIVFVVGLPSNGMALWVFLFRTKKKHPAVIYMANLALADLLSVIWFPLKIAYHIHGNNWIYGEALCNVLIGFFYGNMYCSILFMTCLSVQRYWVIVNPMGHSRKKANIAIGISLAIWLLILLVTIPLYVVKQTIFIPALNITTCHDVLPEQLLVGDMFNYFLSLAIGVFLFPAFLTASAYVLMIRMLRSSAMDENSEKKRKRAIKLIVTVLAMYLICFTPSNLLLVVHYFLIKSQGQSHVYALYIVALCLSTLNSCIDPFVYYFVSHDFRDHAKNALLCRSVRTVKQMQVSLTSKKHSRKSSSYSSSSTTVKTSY
Assay: Ca FLIPR TETRA assay, ANTAGONIST mode, stimulation with 8 μM SLIGKV
Type: cell-based
Conditions: HT-29 cells, stimulation with 8 μM SLIGKV
Reported IC50 maps to class as: bucket 1: < 10 nM; bucket 2: ≥ 10 nM and < 100 nM; bucket 3: ≥ 100 nM

# example entries with known answers
| molecule | class-name |
| --- | --- |
| C[C@H](O)C(=O)N1CCN(C(=O)c2cn3nc(-c4ccc(F)cc4)cc(C(F)(F)F)c3n2)C(C)(C)C1 [Compound I-39] | bucket 3 |
| CC(C)c1cc(-c2ccc(F)cc2)nn2cc(C(=O)N3CCN(C(=O)CC4CC4)[C@@H](C)C3)nc12 [Compound I-140] | bucket 2 |
| O=C(c1cn2nc(-c3ccc(F)cc3)cc(C(F)(F)F)c2n1)N1CCCCC1c1ccn[nH]1 (stereo not shown) [Compound I-78] | bucket 3 |

Exercise: Form field 'band' for CC[C@@H](O)C(=O)N1CCN(C(=O)c2cn3nc(-c4ccc(F)cc4)cc(C(C)C)c3n2)C[C@@H]1C [Compound I-118]
Key: bucket 2

Exercise: // return the class label for CC(C)c1cc(C2CCCCC2)nn2cc(C(=O)N3CCN(C(=O)C4(O)CCC4)CC3(C)C)nc12 [Compound I-41]
Key: bucket 2

Exercise: // bin(item) where item = CC(C)c1cc(-c2ccc(F)cc2)nn2cc(C(=O)N3CCN(C(=O)[C@H](O)C(C)(C)C)[C@@H](C)C3)nc12 [Compound I-152]
Key: bucket 1
